Biological target: HLA-A*02 (human)
Assay: UV peptide-exchange ELISA, yield grade
Metric name: peptide exchange yield

[[record]]
binder = "FIIQGLRSVGA [FIIQGLRSVGA (SEQ ID NO: 119)]"
recorded_measurement = "50 to 75%"

[[record]]
binder = "LLVPTSGIYFV [LLVPTSGIYFV (SEQ ID NO: 107)]"
recorded_measurement = "50 to 75%"

[[record]]
binder = "TLFGYSVVL [TLFGYSVVL (SEQ ID NO: 74)]"
recorded_measurement = "50 to 75%"


Where do the numbers come from? From patent US20170165339A1.
